assay_system: cytochrome bo3 (bo3-only E. coli cells) (Escherichia coli, UniProt P0ABI8)
Construct: the oxidases were in vivo conditions, i.e., integrated into native bacterial membranes; endogenous in cells; host or cells: E. coli TBE025 (MG1655 ΔcydB nuoB appB::kan); whole cells (A3) or membranes isolated from them (A7)
Sequence (P0ABI8 whole entry): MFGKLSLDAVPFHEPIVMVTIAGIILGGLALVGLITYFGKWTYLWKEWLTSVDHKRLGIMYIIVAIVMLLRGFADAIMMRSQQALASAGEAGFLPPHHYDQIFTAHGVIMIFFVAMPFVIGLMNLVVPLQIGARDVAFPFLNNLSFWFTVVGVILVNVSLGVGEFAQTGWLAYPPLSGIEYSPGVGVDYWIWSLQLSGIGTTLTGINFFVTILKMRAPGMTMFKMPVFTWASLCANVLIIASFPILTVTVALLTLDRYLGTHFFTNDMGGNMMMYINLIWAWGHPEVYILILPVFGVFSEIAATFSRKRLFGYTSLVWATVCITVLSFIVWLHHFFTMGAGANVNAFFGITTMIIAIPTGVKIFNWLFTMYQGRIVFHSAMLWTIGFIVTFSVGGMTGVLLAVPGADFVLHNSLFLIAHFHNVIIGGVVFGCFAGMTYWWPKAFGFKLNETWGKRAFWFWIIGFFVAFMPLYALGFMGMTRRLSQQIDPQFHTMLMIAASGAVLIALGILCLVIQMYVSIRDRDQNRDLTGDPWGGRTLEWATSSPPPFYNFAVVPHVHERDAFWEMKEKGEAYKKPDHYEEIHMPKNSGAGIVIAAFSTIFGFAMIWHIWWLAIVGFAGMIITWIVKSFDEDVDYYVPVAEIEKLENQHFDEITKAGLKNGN
Sequence (P0ABJ1 25-315 partner): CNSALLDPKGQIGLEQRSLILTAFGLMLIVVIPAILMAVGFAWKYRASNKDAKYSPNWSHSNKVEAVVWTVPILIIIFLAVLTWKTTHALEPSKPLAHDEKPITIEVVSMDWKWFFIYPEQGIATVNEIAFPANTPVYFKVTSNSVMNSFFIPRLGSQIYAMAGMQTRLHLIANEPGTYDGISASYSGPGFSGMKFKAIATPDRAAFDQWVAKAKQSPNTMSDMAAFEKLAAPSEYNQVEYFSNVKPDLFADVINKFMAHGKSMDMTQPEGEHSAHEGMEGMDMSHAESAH
Sequence (P0ABJ3 whole entry partner): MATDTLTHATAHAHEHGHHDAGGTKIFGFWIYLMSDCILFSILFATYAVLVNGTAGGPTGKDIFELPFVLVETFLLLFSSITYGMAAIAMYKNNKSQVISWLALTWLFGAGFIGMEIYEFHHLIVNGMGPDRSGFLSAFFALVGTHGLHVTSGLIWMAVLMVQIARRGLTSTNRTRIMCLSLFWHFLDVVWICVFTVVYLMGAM
Sequence (P0ABJ6 whole entry partner): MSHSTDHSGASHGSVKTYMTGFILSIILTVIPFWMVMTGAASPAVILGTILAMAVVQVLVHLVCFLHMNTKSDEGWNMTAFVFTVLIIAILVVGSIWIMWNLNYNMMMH
protocol: O2 consumption (aerobic respiration) of bo3-only E. coli cell suspensions
Assay type: cell-based
condition_parameters: CO added at [O2] = 100 μM; read-out: apparent IC50
measurement_name: pIC50
// field semantics: pIC50 = negative decimal log of concentration (mol/L)

Value of measured pIC50 for the entry [C-]#[O+] [CO, Carbon monoxide] : 3.88

====

assay_system: cytochrome bd-II (bd-II-only E. coli cells) (Escherichia coli, UniProt P26459)
Construct: the oxidases were in vivo conditions, i.e., integrated into native bacterial membranes; endogenous in cells; whole cells (A2) or membranes isolated from them (A6)
Sequence (P26459 whole entry): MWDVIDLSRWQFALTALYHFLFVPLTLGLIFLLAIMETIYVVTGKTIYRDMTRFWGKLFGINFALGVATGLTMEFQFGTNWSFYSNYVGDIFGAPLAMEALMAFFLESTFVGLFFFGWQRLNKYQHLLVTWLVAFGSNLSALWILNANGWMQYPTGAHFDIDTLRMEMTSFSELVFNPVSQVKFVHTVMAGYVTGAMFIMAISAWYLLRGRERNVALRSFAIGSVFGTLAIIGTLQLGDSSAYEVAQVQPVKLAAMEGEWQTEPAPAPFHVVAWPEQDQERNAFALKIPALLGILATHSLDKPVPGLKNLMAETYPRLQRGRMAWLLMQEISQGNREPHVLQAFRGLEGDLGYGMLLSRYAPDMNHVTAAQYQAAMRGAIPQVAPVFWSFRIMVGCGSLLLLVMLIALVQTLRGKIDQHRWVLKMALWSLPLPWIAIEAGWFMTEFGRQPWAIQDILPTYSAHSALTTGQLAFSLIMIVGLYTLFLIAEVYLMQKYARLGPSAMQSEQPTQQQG
Sequence (P26458 whole entry partner): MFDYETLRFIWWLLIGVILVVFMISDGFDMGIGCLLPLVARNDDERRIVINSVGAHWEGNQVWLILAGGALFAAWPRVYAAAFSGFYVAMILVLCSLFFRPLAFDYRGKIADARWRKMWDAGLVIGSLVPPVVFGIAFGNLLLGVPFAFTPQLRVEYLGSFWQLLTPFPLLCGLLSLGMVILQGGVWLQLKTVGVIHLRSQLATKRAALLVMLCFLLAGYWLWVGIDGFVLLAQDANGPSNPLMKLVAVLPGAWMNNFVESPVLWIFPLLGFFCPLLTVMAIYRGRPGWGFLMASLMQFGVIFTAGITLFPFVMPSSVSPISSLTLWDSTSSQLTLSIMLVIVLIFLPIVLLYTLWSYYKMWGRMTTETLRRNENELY
Sequence (P24244 whole entry partner): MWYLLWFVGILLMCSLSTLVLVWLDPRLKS
protocol: O2 consumption (aerobic respiration) of bd-II-only E. coli cell suspensions
condition_parameters: estimated from IC50 values at different [O2], assuming competitive inhibition; Km(O2) 2 µM
Source text: The CO and N2 gases were purchased from Linde (Danbury, CT, USA) and Air Liquide (Air Liquide Italia Spa, Milano, Italy), respectively. Other chemicals were purchased from Merck KGaA (Darmstadt, Germany). […] [O2] air equilibrated and [O2] gas flushed are the O2 concentration values measured in the degassed chamber of a high-resolution respirometer (Oxygraph-2k, Oroboros Instruments GmbH, Innsbruck, Austria) of non-fluxed and fluxed E. coli cultures with CO or N2, respectively. […]
measurement_name: pKi
Scale for pKi: -log10 of concentration given in mol/L; no unit attached.

Measured pKi, [C-]#[O+] [CO, Carbon monoxide] : 5.60

====

assay_system: cytochrome bd-II (bd-II-only E. coli cells) (Escherichia coli)
Construct: the oxidases were in vivo conditions, i.e., integrated into native bacterial membranes; endogenous in cells; host or cells: E. coli TBE026 (MG1655 ΔcydB nuoB cyoB::kan); whole cells (A2) or membranes isolated from them (A6)
protocol: O2 consumption (aerobic respiration) of bd-II-only E. coli cell suspensions
Type: cell-based
condition_parameters: CO added at [O2] = 100 μM; read-out: apparent IC50
measurement_name: pIC50
Would you please state pIC50, meaning minus log10 of the concentration in mol/L, as a bare number?

pIC50 reading for [C-]#[O+] [CO, Carbon monoxide] : 3.77

====

assay_system: cytochrome bo3 (bo3-only E. coli cells) (Escherichia coli)
Construct: the oxidases were in vivo conditions, i.e., integrated into native bacterial membranes; endogenous in cells; host or cells: E. coli TBE025 (MG1655 ΔcydB nuoB appB::kan); whole cells (A3) or membranes isolated from them (A7)
protocol: O2 consumption (aerobic respiration) of bo3-only E. coli cell suspensions
Assay type: cell-based
condition_parameters: CO added at [O2] = 50 μM; read-out: apparent IC50
measurement_name: pIC50
Entry type: numeric. Quantity: pIC50, the -log10 of concentration in molar units.

For this compound ( [C-]#[O+] [CO, Carbon monoxide] ), measured pIC50 is 4.18
